# Assay: folding enthalpy; higher = less favourable; fluorescence melt of hairpins on a sequencing array, two-state fit
# Condition set: sodium 0.088 M
Dear colleague, classification is by folding enthalpy, with ranges listed here: one (below -30 kcal/mol), two (-30 kcal/mol to below -20 kcal/mol), three (-20 kcal/mol or more)

[
  {
    "Monomer sequence": "GTGAGAGGAAACTCCCAC (((.(((....))).)))",
    "Label class": "two"
  }
]

Assign a category based on measured folding enthalpy for GGTCGCTCGAAAGAGACC (((..(((....)))))) and give only the class name.
two

Assign a category based on measured folding enthalpy for GATCGAGCAATCGATC ((((((....)))))) and give only the class name.
one

Assign a category based on measured folding enthalpy for GTCGCCGAAAGGCATGAC ((((((....)))..))) and give only the class name.
three

Assign a category based on measured folding enthalpy for GATCCAACATGGATC ((((((...)))))) and give only the class name.
one

Assign a category based on measured folding enthalpy for GGTCACGGAAACATGACC (((((.(....).))))) and give only the class name.
two

Assign a category based on measured folding enthalpy for GATCCCTTCGGGATC ((((((...)))))) and give only the class name.
one

Assign a category based on measured folding enthalpy for GGTAAGGCGAAAGCCACC (((..(((....)))))) and give only the class name.
three

Assign a category based on measured folding enthalpy for GATCGCTCGTGCGATC ((((((....)))))) and give only the class name.
one

Assign a category based on measured folding enthalpy for GGTTGACGAAAGTCCACC (((.(((....))).))) and give only the class name.
one

Assign a category based on measured folding enthalpy for GAGGCTGGAAACAGTCTC (((.(((....))).))) and give only the class name.
one

Assign a category based on measured folding enthalpy for GCGAGAGGAAACCCTCGC (((((.(....).))))) and give only the class name.
two

Assign a category based on measured folding enthalpy for GGAACTCGAAAGAGGTCC (((.(((....))).))) and give only the class name.
one

Assign a category based on measured folding enthalpy for GTAATACGAAAGTAGTAC (((.(((....))).))) and give only the class name.
one

Assign a category based on measured folding enthalpy for GGGAAAGGAAACTTCCCC (((.(((....))).))) and give only the class name.
two

Assign a category based on measured folding enthalpy for GTCAAGGGAAACCTTGGC (.(((((....))))).) and give only the class name.
one
